B1: LINE1-full (parent)
chain: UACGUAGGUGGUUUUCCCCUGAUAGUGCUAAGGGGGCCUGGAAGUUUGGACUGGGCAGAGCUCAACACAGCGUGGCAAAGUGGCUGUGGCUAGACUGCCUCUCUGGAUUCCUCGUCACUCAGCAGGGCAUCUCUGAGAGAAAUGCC

variants of: B1; experiment: self-cleavage, relative activity (ratio to wild type); higher = more cleavage; in vitro, sequencing; the parent is a self-cleaving ribozyme

SEQUENCE ENTRY	self-cleavage
UACGUAGGUGGUUUUCCCCUGAUAGUGCUAAGGGGGCCUGGAAGUUUGGACUGGGCAGAGCUCAACACAGCGUGGCAAAGUGGCUGUGGCUAGACUGCCUCUCUGGAUUCCUCGCCACUCAGCAGGGCGUCUCUGAGAGAAAUGCC [U115C A129G]	1.64
UACGUAGGUGGUUUUCCCCUGAUAGUACUAAGGGGGCCUGGAAGUUUGGACUGGGCAGAGCUCAACACAGCGUGGCAAAGUGGCUGUGGCUAGACUGCCUCUCUGGAUUCCCCGUCACUCAGCAGGGCAUCUCUGAGAGAAAUGCC [G27A U112C]	1.7
UACGUAGGUGGUUUUCCCCUGAUAGUGCUAAGGGGGCCUGGAAGUUUGGACUGGGCAGAGCUCAACGCAGCGUGGCAAAGUGGUUGUGGCUAGACUGCCUCUCUGGAUUCCUCGUCACUCAGCAGGGCAUCUCUGAGAGAAAUGCC [A67G C84U]	0.04
UACGUAGGUGGUUCUCCCCUGAUAGUGCUAAGGGGGCCUGGAAGUUUGGACUGGGCAGAGCUCAACACAGCGUGGCAAAGUGGCUGUGGCUAGACUGCCUCUCUGGAUUCCACGUCACUCAGCAGGGCAUCUCUGAGAGAAAUGCC [U14C U112A]	1.17
UACGUAGGUGGUUUUCCCCUGAUAGUGCUAAGGGGGCCUGGAAGUUUGGACUGGGCAGAGCUCAACACGGCGUGGCAAAGUGGCUGUGGCUAGACUGCCUCUCUGGAUUCCUCGUCACUCAGCAGGGCAUAUCUGAGAGAAAUGCC [A69G C131A]	1.01
UACGUAGGUGGUUUUCCCCUGAUAGUGCUAAGGGGGCCUGGAAGUUUGGACUGGGCAGAGCUCAACACAGCGUGACAAAGUUGCUGUGGCUAGACUGCCUCUCUGGAUUCCUCGUCACUCAGCAGGGCAUCUCUGAGAGAAAUGCC [G75A G82U]	1.07
UACGUAGGUGGUUUUCCCCUGAUAGUGCUAAGGGGGCCAGGAAGUUUGGACUGGGCAGAGCUCAACACAGCGUGGCAAAGUGGCUGUGGCUAGACUGCCUCUCUGGAUUCCUCGUCACUCAGCAGGGCAUCUCUGAGAGAAGUGCC [U39A A142G]	1.53
UACGUAGGUGGUUUUCCCCUGAUAGUGCUAAGGGGGCCUGGAAGUUUAGACUGGGCAGAGCUCAACACAGCGUGGCAAAGUGGCUGUGGCUAGACUGCCUCUCUGGAUUCCUCGUCACUCAGCAGGGCAUCUCAGAGAGAAAUGCC [G48A U134A]	0.83
UACGUAGGUGGUUUUCCCCUGAUAGUGCUAAGGGGGCCUGGAAGUUUGGACUGGGCAGAGCUCAACCCAGCGCGGCAAAGUGGCUGUGGCUAGACUGCCUCUCUGGAUUCCUCGUCACUCAGCAGGGCAUCUCUGAGAGAAAUGCC [A67C U73C]	0.22
CACGUAGGUGGUUUUCCCCUGAUAGUGCUAAGGGGGCCUGGAAGUUUGGACUGGGCAGAGCUCAACACAGCGUGGCAAAGUGGCUGUGGCUGGACUGCCUCUCUGGAUUCCUCGUCACUCAGCAGGGCAUCUCUGAGAGAAAUGCC [U1C A92G]	0.14
UACGUAGGUGGUUUACCCCUGAUAGUGCUAAGGGGGCCUGGAAGUUUGGACUGGGCAGAGCUCAACACAGCGUGGCAAAGUGGCUGUGGCUAGACUGCCUCUCUGGAUUCCUCGUCACUCAGCAGGGCAUCUCUGAGAGAAAUGCU [U15A C146U]	0.88

Values compiled from the RNAGym collection of RNA variant scans (doi:10.7554/elife.90254).
